Target: T1, rat amylin receptor (calcitonin receptor co-expressed with receptor activity modifying protein, RAMP3) (rat, UniProt P32214 25-516; Q9JJ73 23-147)
T1 sequence (looked up) 1: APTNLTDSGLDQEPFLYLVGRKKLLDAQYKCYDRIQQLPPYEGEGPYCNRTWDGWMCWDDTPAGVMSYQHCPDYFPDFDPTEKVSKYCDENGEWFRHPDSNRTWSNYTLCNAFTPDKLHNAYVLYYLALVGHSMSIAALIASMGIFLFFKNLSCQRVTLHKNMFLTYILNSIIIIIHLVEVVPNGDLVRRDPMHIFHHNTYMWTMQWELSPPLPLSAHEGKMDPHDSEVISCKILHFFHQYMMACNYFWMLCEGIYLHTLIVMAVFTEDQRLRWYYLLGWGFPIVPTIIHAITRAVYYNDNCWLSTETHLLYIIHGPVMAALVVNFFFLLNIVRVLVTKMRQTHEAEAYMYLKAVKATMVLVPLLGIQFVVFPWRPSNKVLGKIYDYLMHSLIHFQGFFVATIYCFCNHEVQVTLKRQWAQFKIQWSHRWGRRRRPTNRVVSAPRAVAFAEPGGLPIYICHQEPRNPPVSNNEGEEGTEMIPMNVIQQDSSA
T1 sequence (looked up) 2: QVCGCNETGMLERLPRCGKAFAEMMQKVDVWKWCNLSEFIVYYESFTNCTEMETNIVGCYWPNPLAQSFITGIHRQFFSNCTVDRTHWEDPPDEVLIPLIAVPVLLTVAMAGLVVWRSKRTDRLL
Test: cell-based or functional assay
Numbered stars: 1 amine (or outer) side, 2 acyl side, 3 side chain; on linkers, the order of the positions; unused ones are H or OH. Bridge positions count the residues as written; N and C are the ends. Square brackets hold non-standard residues; d marks the D form. * marks the point of attachment. C18 diacid = O=C(O)CCCCCCCCCCCCCCCCC(=O)*; γGlu = O=C(O)[C@H](CCC(=O)[*:2])N[*:1]; αMeF = C[C@](N)(Cc1ccccc1)C(=O)O
REPORTED ENDPOINT: EC50 (cAMP production) (pM)

{"BINDER": "{C18 diacid}-[γGlu]KCNTATCATQRLANFLVHSSNNFGPILPPTNVGSNTY-NH2 (disulfide 3-8) [Peptide 3 (SEQ ID NO: 3)]", "RESULT NUMBER": 2.9}
{"BINDER": "{C18 diacid-γGlu}-CNTATCATQRLAEFLRHSSNN[αMeF]GPILPPTNVGSNTY-NH2 (disulfide 1-6; numbers in words are those of the source; also: K1 deleted) [Peptide 10 (SEQ ID NO: 10)]", "RESULT NUMBER": 12.1}
